B1: Twister Ribozyme (parent)
chain: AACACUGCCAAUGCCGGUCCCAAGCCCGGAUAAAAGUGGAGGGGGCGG

- Variants of: B1
- Experiment Description: self-cleavage, relative activity (ratio to wild type); higher = more cleavage; co-transcriptional
The threshold is inclusive: self-cleavage of exactly 0.3 counts as Met; values below receive Not met.

Can AUCACUGCCAAUGCCGGUCCCAAGUCCGGAUAAAAGUGGAGGGGGCGG [A2U C25U] be said to have self-cleavage at or above 0.3?
Not met

Can AACACUGCCAAUGCCGGUCCCAAGCCCGGUUAAGAGUGGAGGGGGCGG [A30U A34G] be said to have self-cleavage at or above 0.3?
Met

Can AACACUGCCAAUGCAGGUCCCAAGCCCGGAUAAAAGUGGAGGGAGCGG [C15A G44A] be said to have self-cleavage at or above 0.3?
Met

Can AACACUGCCAAUGCCGGCCCCAUGCCCGGAUAAAAGUGGAGGGGGCGG [U18C A23U] be said to have self-cleavage at or above 0.3?
Not met

Can CACACUGCCAAUGCCGGUCCCAAGCCCGGAUAAAAGUGGAGGGGGCCG [A1C G47C] be said to have self-cleavage at or above 0.3?
Not met

Can AACACUGCCAAUGCCGGUCCCAAGCGCGGAUAAAAGUGGAGGGGGUGG [C26G C46U] be said to have self-cleavage at or above 0.3?
Met

Can CACACUGCCAAUGCCGGUCCCAAGCCCGGAUAAUAGUGGAGGGGGCGG [A1C A34U] be said to have self-cleavage at or above 0.3?
Not met

Can AACACUGCCAAUGCCGGUCCCAAGCCCGGAUCAAAGUGGAGGGCGCGG [A32C G44C] be said to have self-cleavage at or above 0.3?
Met

Can AAGAAUGCCAAUGCCGGUCCCAAGCCCGGAUAAAAGUGGAGGGGGCGG [C3G C5A] be said to have self-cleavage at or above 0.3?
Not met

Can AACACUGCCAAUGCCGGUCCCAAGCCCGGAUAAAAGUCGAGGGGGCGC [G38C G48C] be said to have self-cleavage at or above 0.3?
Met

Can AACACUGCCCAUGCCUGUCCCAAGCCCGGAUAAAAGUGGAGGGGGCGG [A10C G16U] be said to have self-cleavage at or above 0.3?
Met

Can AACACUGCCAAUGGCGGUCCCAAGCGCGGAUAAAAGUGGAGGGGGCGG [C14G C26G] be said to have self-cleavage at or above 0.3?
Not met

Can AACACUGCCAAUGCCGGUCCCAAGCCCGGAUAGAAGUGGCGGGGGCGG [A33G A40C] be said to have self-cleavage at or above 0.3?
Not met

Can AACACUGCCAAUGUAGGUCCCAAGCCCGGAUAAAAGUGGAGGGGGCGG [C14U C15A] be said to have self-cleavage at or above 0.3?
Met

Can AACAGUGCCAAUGACGGUCCCAAGCCCGGAUAAAAGUGGAGGGGGCGG [C5G C14A] be said to have self-cleavage at or above 0.3?
Met

Can AACAGUGCCAAUGCCGGUCCCAAGCCCGGAUUAAAGUGGAGGGGGCGG [C5G A32U] be said to have self-cleavage at or above 0.3?
Met

Can AAUACUGCCAAUGCCGGUCCCAAGCCUGGAUAAAAGUGGAGGGGGCGG [C3U C27U] be said to have self-cleavage at or above 0.3?
Not met

Can AAUACUGCCAAUGCCCGUCCCAAGCCCGGAUAAAAGUGGAGGGGGCGG [C3U G16C] be said to have self-cleavage at or above 0.3?
Not met

Can AACACUGCCAAUGCCGGACCCAAGCCCGGAUAAAAGUGGAGGGGGAGG [U18A C46A] be said to have self-cleavage at or above 0.3?
Not met

Can AACACUGCCAAUGUCGGUCCCAAGCCCGGAUAAAAGUGGAGGGGACGG [C14U G45A] be said to have self-cleavage at or above 0.3?
Met

Can AUCACUGCCAAUGCCGGUCCCAAGCACGGAUAAAAGUGGAGGGGGCGG [A2U C26A] be said to have self-cleavage at or above 0.3?
Not met

Can AACACUGCCAAUGCCGGUCCCAAGCCCGGAUAAAAGGCGAGGGGGCGG [U37G G38C] be said to have self-cleavage at or above 0.3?
Not met
